All figures here come from PubChem BioAssay AID1845213.

# Test system: NCI-H841 complex tumor spheroid viability
# ASSAY INFO: Anticancer human tumor NCI-H841 cell line growth inhibition;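 further: spheroids exposed to compounds for 7 days before readout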;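 on viability, T/C: 100% = DMSO vehicle control wells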
# CONDITION DESCRIPTION: second compound 10 µM; first compound 3.16 µM; stronger effect = lower value
MEASURE: viability, T/C

Enquiry: # value lookup — system NCI-H841 complex tumor spheroid viability, readout viability, T/C, item [2H]c1nc(C)nc([2H])c1-c1cc(NC[C@@H](C)c2cccc3c(C(=O)NC)ccnc23)ncn1 + Cn1nnc2c(C(N)=O)ncn2c1=O
Return: 98.9%

Enquiry: # value lookup — system NCI-H841 complex tumor spheroid viability, readout viability, T/C, item COc1ccc([C@@H](O)c2cc(-c3ncnc4cc(N5CCOCC5)ccc34)c(F)cc2Cl)nn1 + Cn1nnc2c(C(N)=O)ncn2c1=O
Return: 32.1%

Enquiry: # value lookup — system NCI-H841 complex tumor spheroid viability, readout viability, T/C, item COc1cc(C)[nH]c(=O)c1CN1CCc2c(Cl)cc(C(OC)C3COC3)c(Cl)c2C1=O (stereo unspecified) + Cn1nnc2c(C(N)=O)ncn2c1=O
Return: 35.9%

Enquiry: # value lookup — system NCI-H841 complex tumor spheroid viability, readout viability, T/C, item Cc1cc(C)c(CNC(=O)c2cc(-c3ccc(CN4CCOCC4)cc3)cc3c2cnn3C2CCCC2)c(=O)[nH]1 + Cn1nnc2c(C(N)=O)ncn2c1=O
Return: 87.2%

Enquiry: # value lookup — system NCI-H841 complex tumor spheroid viability, readout viability, T/C, item CC1COCCN1c1cc(-c2ccnn2C)c2ccnc(-c3ccn[nH]3)c2n1 (stereo unspecified) + Cn1nnc2c(C(N)=O)ncn2c1=O
Return: 1.4%

Enquiry: # value lookup — system NCI-H841 complex tumor spheroid viability, readout viability, T/C, item CC(C)n1c(=O)n(C)c2cnc3cc(F)c(-c4ccc(OCCCN5CCCCC5)nc4)cc3c21 + Cn1nnc2c(C(N)=O)ncn2c1=O
Return: 88%

----------
# Test system: NCI-H841 complex tumor spheroid viability
# ASSAY INFO: Anticancer human tumor NCI-H841 cell line growth inhibition;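 further: spheroids exposed to compounds for 7 days before readout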;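 on viability, T/C: 100% = DMSO vehicle control wells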
# CONDITION DESCRIPTION: second compound 0.0949 µM; first compound 0.1 µM; stronger effect = lower value
MEASURE: viability, T/C (%)
Your answer should be a plain number; it is taken to be in %.

Enquiry: Request the reported viability, T/C associated with CC(C)n1c(=O)n(C)c2cnc3cc(F)c(-c4ccc(OCCCN5CCCCC5)nc4)cc3c21 + CC[C@@]1(O)C(=O)OCc2c1cc1n(c2=O)Cc2cc3c(CN(C)C)c(O)ccc3nc2-1
Return: 1.53

Enquiry: Request the reported viability, T/C associated with COc1cc(C)[nH]c(=O)c1CN1CCc2c(Cl)cc(C(OC)C3COC3)c(Cl)c2C1=O (stereo not drawn) + CC[C@@]1(O)C(=O)OCc2c1cc1n(c2=O)Cc2cc3c(CN(C)C)c(O)ccc3nc2-1
Return: 1.4

Enquiry: Request the reported viability, T/C associated with [2H]c1nc(C)nc([2H])c1-c1cc(NC[C@@H](C)c2cccc3c(C(=O)NC)ccnc23)ncn1 + CC[C@@]1(O)C(=O)OCc2c1cc1n(c2=O)Cc2cc3c(CN(C)C)c(O)ccc3nc2-1
Return: 1.82

----------
# Tested on: NCI-H841 complex tumor spheroid viability
# ASSAY INFO: Anticancer human tumor NCI-H841 cell line growth inhibition;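 further: spheroids exposed to compounds for 7 days before readout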;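 on viability, T/C: 100% = DMSO vehicle control wells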
# CONDITION DESCRIPTION: second compound 0.3 µM; first compound 0.3 µM; stronger effect = lower value
Exercise: state measured viability, T/C for each of the compounds provided.
Your answer should be a plain number; it is taken to be in %.

Enquiry: # value lookup — system NCI-H841 complex tumor spheroid viability, readout viability, T/C, item O=C(c1cc(Cc2n[nH]c(=O)c3ccccc23)ccc1F)N1CCN(C(=O)C2CC2)CC1 + CC[C@@]1(O)C(=O)OCc2c1cc1n(c2=O)Cc2cc3c(CN(C)C)c(O)ccc3nc2-1
Return: 1.16

Enquiry: # value lookup — system NCI-H841 complex tumor spheroid viability, readout viability, T/C, item CNCc1ccc(-c2cc(-c3nc(-c4ccc(S(=O)(=O)C(C)C)cc4)cnc3N)on2)cc1 + CC[C@@]1(O)C(=O)OCc2c1cc1n(c2=O)Cc2cc3c(CN(C)C)c(O)ccc3nc2-1
Return: 0.61

Enquiry: # value lookup — system NCI-H841 complex tumor spheroid viability, readout viability, T/C, item Cc1sc2c(c1C)C(c1ccc(Cl)cc1)=NC(CC(=O)Nc1ccc(O)cc1)c1nnc(C)n1-2 (centres undefined) + CC[C@@]1(O)C(=O)OCc2c1cc1n(c2=O)Cc2cc3c(CN(C)C)c(O)ccc3nc2-1
Return: 0.57

Enquiry: # value lookup — system NCI-H841 complex tumor spheroid viability, readout viability, T/C, item Cn1ncnc1[C@H]1c2n[nH]c(=O)c3cc(F)cc(c23)N[C@@H]1c1ccc(F)cc1 + CC[C@@]1(O)C(=O)OCc2c1cc1n(c2=O)Cc2cc3c(CN(C)C)c(O)ccc3nc2-1
Return: 0.9

----------
# Test system: NCI-H841 complex tumor spheroid viability
# ASSAY INFO: Anticancer human tumor NCI-H841 cell line growth inhibition;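 further: spheroids exposed to compounds for 7 days before readout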
# CONDITION DESCRIPTION: curve of first compound; second compound 0.00949 µM
# Protocol: Multicellular complex tumor spheroid response to DNA repair inhibitors in combination with DNA-damaging drugs This study explores the anticancer activities of DNA-damaging drugs and inhibitors of DNA damage repair, both as single agents and in combinations. […] Twenty-six patient-derived or established malignant cell lines were evaluated representing sarcoma, melanoma, small cell lung cancer (SCLC), non-small cell lung cancer (NSCLC), as well as bladder, ovarian and pancreatic cancers. […]
MEASURE: pIC50
Kindly note that pIC50 refers to -log10 of the concentration in mol/L and answer with the value alone.

Enquiry: Request the reported pIC50 associated with Cc1sc2c(c1C)C(c1ccc(Cl)cc1)=NC(CC(=O)Nc1ccc(O)cc1)c1nnc(C)n1-2 (stereo not given) + CC[C@@]1(O)C(=O)OCc2c1cc1n(c2=O)Cc2cc3c(CN(C)C)c(O)ccc3nc2-1
Return: 7.90

Enquiry: Request the reported pIC50 associated with COc1cc(C)[nH]c(=O)c1CN1CCc2c(Cl)cc(C(OC)C3COC3)c(Cl)c2C1=O (stereo not given) + CC[C@@]1(O)C(=O)OCc2c1cc1n(c2=O)Cc2cc3c(CN(C)C)c(O)ccc3nc2-1
Return: 6.64

Enquiry: Request the reported pIC50 associated with COc1ccc([C@@H](O)c2cc(-c3ncnc4cc(N5CCOCC5)ccc34)c(F)cc2Cl)nn1 + CC[C@@]1(O)C(=O)OCc2c1cc1n(c2=O)Cc2cc3c(CN(C)C)c(O)ccc3nc2-1
Return: 5.91

----------
# System: NCI-H841 complex tumor spheroid viability
# ASSAY INFO: Anticancer human tumor NCI-H841 cell line growth inhibition; active = viability on the fitted dose curve at most 10% of control; inactive = the rest;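 further: spheroids exposed to compounds for 7 days before readout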
# CONDITION DESCRIPTION: second compound 0.003 µM; first compound 0.00949 µM
Respond using exactly one of the listed classes: Yes = active, No = inactive

Enquiry: Identify the outcome logged in this assay for the compound shown: Cc1sc2c(c1C)C(c1ccc(Cl)cc1)=NC(CC(=O)Nc1ccc(O)cc1)c1nnc(C)n1-2 (stereo unspecified) + COc1cc2c(cc1O)CCNC21CSC2c3c(OC(C)=O)c(C)c4c(c3C(COC1=O)N1C(O)C3Cc5cc(C)c(OC)c(O)c5C(C21)N3C)OCO4
Return: Yes

Enquiry: Identify the outcome logged in this assay for the compound shown: Cn1ncnc1[C@H]1c2n[nH]c(=O)c3cc(F)cc(c23)N[C@@H]1c1ccc(F)cc1 + COc1cc2c(cc1O)CCNC21CSC2c3c(OC(C)=O)c(C)c4c(c3C(COC1=O)N1C(O)C3Cc5cc(C)c(OC)c(O)c5C(C21)N3C)OCO4
Return: Yes

Enquiry: Identify the outcome logged in this assay for the compound shown: Cn1ncnc1[C@H]1c2n[nH]c(=O)c3cc(F)cc(c23)N[C@@H]1c1ccc(F)cc1 + CC[C@@]1(O)C(=O)OCc2c1cc1n(c2=O)Cc2cc3c(CN(C)C)c(O)ccc3nc2-1
Return: No

Enquiry: Identify the outcome logged in this assay for the compound shown: CNCc1ccc(-c2cc(-c3nc(-c4ccc(S(=O)(=O)C(C)C)cc4)cnc3N)on2)cc1 + COc1cc2c(cc1O)CCNC21CSC2c3c(OC(C)=O)c(C)c4c(c3C(COC1=O)N1C(O)C3Cc5cc(C)c(OC)c(O)c5C(C21)N3C)OCO4
Return: Yes

Enquiry: Identify the outcome logged in this assay for the compound shown: CNCc1ccc(-c2cc(-c3nc(-c4ccc(S(=O)(=O)C(C)C)cc4)cnc3N)on2)cc1 + CC[C@@]1(O)C(=O)OCc2c1cc1n(c2=O)Cc2cc3c(CN(C)C)c(O)ccc3nc2-1
Return: No

Enquiry: Identify the outcome logged in this assay for the compound shown: Cc1sc2c(c1C)C(c1ccc(Cl)cc1)=NC(CC(=O)Nc1ccc(O)cc1)c1nnc(C)n1-2 (stereo unspecified) + CC[C@@]1(O)C(=O)OCc2c1cc1n(c2=O)Cc2cc3c(CN(C)C)c(O)ccc3nc2-1
Return: No
